Reference source for all entries: the supplement of paper PMC11451515

system: P12-Ichikawa; assay: AUC of viability dose-response curve (% viability x log10 dose units); higher = less sensitive; conditions: RPMI 5 mM glucose + 10% FBS; 48 h
We label by threshold. Values of AUC of viability dose-response curve strictly beneath 400 are Satisfied. Values of 400 and up are Not satisfied.

CHEMICAL_SMILES: CNC(=O)CN1CCC(Oc2cc3c(Nc4cccc(Cl)c4F)ncnc3cc2OC)CC1
SYSTEM_TESTED: P12-Ichikawa
GROUP_LABEL: Satisfied
--
CHEMICAL_SMILES: N#Cc1ccc(C(c2ccc(C#N)cc2)n2cncn2)cc1
SYSTEM_TESTED: P12-Ichikawa
GROUP_LABEL: Not satisfied
--
CHEMICAL_SMILES: CC(C)(O)c1cc2nc(-c3cnc(N)nc3)nc(N3CCOCC3)c2s1
SYSTEM_TESTED: P12-Ichikawa
GROUP_LABEL: Satisfied
--
CHEMICAL_SMILES: CC(C)(C)[C@H](NC(=O)c1ccc(N)c(Cl)c1)C(=O)N1CCC[C@H]1C(=O)N[C@H](C#N)CC(=O)O
SYSTEM_TESTED: P12-Ichikawa
GROUP_LABEL: Satisfied

Now turn to the next compound.
Prompt: Answer whether the compound O=C(OCC#CCSc1nnc(-c2cccc3ccccc23)o1)c1cc2ccccc2s1 has AUC of viability dose-response curve strictly less than 400
Response: Not satisfied
